biological target: T1, H44L4 full-length IgG; assay: peptide ELISA (scheme of FIG. 8)
T1 construct: also called autoanti-GPIIb/IIIa
T1 sequence (VH, as listed by the source, chain 1 of 2): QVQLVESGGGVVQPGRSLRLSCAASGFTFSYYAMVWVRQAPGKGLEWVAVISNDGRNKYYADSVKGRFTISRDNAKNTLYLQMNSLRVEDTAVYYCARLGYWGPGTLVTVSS
T1 sequence (VL, as listed by the source, chain 2 of 2): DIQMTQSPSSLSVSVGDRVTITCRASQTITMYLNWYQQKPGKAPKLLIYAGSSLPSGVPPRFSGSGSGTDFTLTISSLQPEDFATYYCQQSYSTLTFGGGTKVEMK
Quantity kind: binding result

Below are worked cases with known answers.
DLRLNSLIVPWS (From the 12-mer linear phage library; also called 12-mer linear peptide) [P4-12]; binds
CIVEHFFHC [P73-2]; binds
CVTSKPHTC [P74-5]; binds
CETWWRLSC [P73-6]; binds
CLVPWMFHC [P73-11]; binds
FPLMSLINPWRT [P124-2]; binds
WSLHTLGLPFVF [P123-10]; binds
CPSLAHRWC (From the Cys-7-mer-Cys constrained phage library; also called C7C constrained peptide) [P3-4]; binds
LPFNTLIVPGRT [P124-11]; binds
FPLNTIIHSAVY (From the 12-mer linear phage library; also called 12-mer linear peptide) [P4-7]; binds

Next item in the queue.
Lookup: Tell me its binding result given KHSMPINAILPP [P124-8] as the entry.
Found: binds
